These data points were gathered from ChEMBL document CHEMBL3621064.

Recorded GI50 values for a group of compounds are listed next.
Assay name: Antiproliferative activity against human U373 cells by MTT assay
Type: functional, U-373MG ATCC
Condition: U373 MG
Number in µM, nothing else.

[
  {
    "Structure string": "CC(C)=C[C@H]1C[C@H](C)[C@]2(CC[C@]3(C)C[C@H]4[C@H](C(=O)C[C@@]4(C)O)C(/C=C/C#N)=C\\C[C@H]32)O1",
    "Value kind": "GI50",
    "Data value": 27
  },
  {
    "Structure string": "CC(=O)O[C@]1(C)Cc2occ3c2[C@@H]1C[C@@]1(C)CC[C@@]2(O[C@@H](C=C(C)C)C[C@@H]2C)[C@@H]1/C=C\\3",
    "Value kind": "GI50",
    "Data value": 8
  },
  {
    "Structure string": "CC(=O)N[C@@H](CCCC/N=C/C1=C/C[C@@H]2[C@](C)(CC[C@@]23O[C@@H](C=C(C)C)C[C@@H]3C)C[C@H]2[C@@H]1C(=O)C[C@@]2(C)O)C(=O)O",
    "Value kind": "GI50",
    "Data value": 4
  },
  {
    "Structure string": "CCOC(C)(C)[C@@H](Br)[C@H]1C[C@H](C)[C@]2(CC[C@]3(C)C[C@H]4[C@H](C(=O)C[C@@]4(C)O)/C(C=O)=C\\C[C@H]32)O1",
    "Value kind": "GI50",
    "Data value": 1.2
  },
  {
    "Structure string": "CC(C)=C[C@H]1C[C@H](C)[C@]2(CC[C@]3(C)C[C@H]4c5c(cnnc5C[C@@]4(C)O)CC[C@H]32)O1",
    "Value kind": "GI50",
    "Data value": 30
  }
]

Proceed to the following item.
Data request, read-out GI50, for C#CCOC(C)(C)[C@@H](Br)[C@H]1C[C@H](C)[C@]2(CC[C@]3(C)C[C@H]4[C@H](C(=O)C[C@@]4(C)O)/C(C=O)=C\C[C@H]32)O1
1.4

---

Assay name: Antiproliferative activity against human U373 cells by MTT assay
Type: functional, U-373MG ATCC
Condition: U373 MG
Labelling field: enter criterion met if recorded GI50 is less than 2000 nM. Enter criterion not met if it equals or exceeds that cut-off.

Take a look at these entries with their results.
[
  {
    "Molecule": "CCOC1O[C@@]2(OCC)C[C@@](C)(O)[C@H]3C[C@@]4(C)CC[C@@]5(O[C@@H](C=C(C)C)C[C@@H]5C)[C@@H]4C/C=C/1[C@H]32 (mixture of isomers)",
    "Category": "criterion met"
  },
  {
    "Molecule": "CC(C)=C[C@H]1C[C@H](C)[C@]2(CC[C@]3(C)C[C@H]4[C@H](C(=O)C[C@@]4(C)O)/C(C=O)=C\\C[C@H]32)O1",
    "Category": "criterion met"
  },
  {
    "Molecule": "CC(C)=C[C@H]1C[C@H](C)[C@]2(CC[C@]3(C)C[C@H]4c5c(cn(Cc6ccccc6)c5C[C@@]4(C)O)/C=C\\[C@H]32)O1",
    "Category": "criterion not met"
  },
  {
    "Molecule": "C[C@H]1C[C@H]([C@H](Br)C(C)(C)OCc2cn(Cc3ccccc3)nn2)O[C@@]12CC[C@]1(C)C[C@H]3[C@H](C(=O)C[C@@]3(C)O)/C(C=O)=C\\C[C@H]12",
    "Category": "criterion not met"
  }
]

Read the next record carefully.
Please check: GI50 for C#CCCCCOC(C)(C)[C@@H](Br)[C@H]1C[C@H](C)[C@]2(CC[C@]3(C)C[C@H]4[C@H](C(=O)C[C@@]4(C)O)/C(C=O)=C\C[C@H]32)O1 , strictly under 2000 nM or not?
criterion not met

---

Assay name: Antiproliferative activity against human U373 cells by MTT assay
Assay type: functional, U-373MG ATCC
Condition: U373 MG
Labelling field: enter Y if recorded GI50 is less than 30 µM. Enter N if it equals or exceeds that cut-off.

Take a look at these entries with their results.
[
  {
    "Molecule": "COC(=O)/C=C/C1=C/C[C@@H]2[C@](C)(CC[C@@]23O[C@@H](C=C(C)C)C[C@@H]3C)C[C@H]2[C@@H]1C(=O)C[C@@]2(C)O",
    "Category": "N"
  },
  {
    "Molecule": "CC(C)=C[C@H]1C[C@H](C)[C@]2(CC[C@]3(C)C[C@@H]4C(C)=CC(=O)[C@H]4/C(C=O)=C\\C[C@H]32)O1 [3-ANHYDRO-6-EPI-OPHIOBOLIN A]",
    "Category": "Y"
  },
  {
    "Molecule": "CO[C@H]1O[C@@]2(OC)C[C@@](C)(O)[C@H]3C[C@@]4(C)CC[C@@]5(O[C@@H](C=C(C)C)C[C@@H]5C)[C@@H]4C/C=C/1[C@H]32",
    "Category": "Y"
  }
]

Please check: GI50 for CC(C)=C[C@H]1C[C@H](C)[C@]2(CC[C@]3(C)C[C@H]4c5c(cn(CCc6ccc(O)cc6)c5C[C@@]4(C)O)/C=C\[C@H]32)O1 , strictly under 30 µM or not?
N

---

Assay name: Antiproliferative activity against human U373 cells by MTT assay
Type: functional, U-373MG ATCC
Condition: U373 MG
Value kind: GI50 (nM)
Number in nM, nothing else.

[
  {
    "Compound": "C#CCCCOC(=O)/C=C/C1=C/C[C@@H]2[C@](C)(CC[C@@]23O[C@@H](C=C(C)C)C[C@@H]3C)C[C@H]2[C@@H]1C(=O)C[C@@]2(C)O",
    "Measurement unit": "nM",
    "Data value": 20000
  },
  {
    "Compound": "CCCO[C@H]1O[C@@]2(OCCC)C[C@@](C)(O)[C@H]3C[C@@]4(C)CC[C@@]5(O[C@@H](C=C(C)C)C[C@@H]5C)[C@@H]4C/C=C/1[C@H]32",
    "Measurement unit": "nM",
    "Data value": 400
  }
]

Proceed to the following item.
Data request, read-out GI50, for C[C@H]1C[C@H](C2OC2(C)C)O[C@@]12CC[C@]1(C)C[C@H]3[C@H](C(=O)C[C@@]3(C)O)/C(C=O)=C\C[C@H]12 (mixture of isomers)
600
